Values were extracted from patent US20240083857A1.

# Measured Target: human SOS1 (nucleotide exchange of K-Ras^G12C) (Homo sapiens, UniProt Q07889)
# Test Protocol: Biochemical assay 2: K-Ras^G12C activation assay by hSOS1 at high GTP concentration (HTRF)
# Protocol Conditions: high GTP; read-out: Assay 2 (KRAS-Activation by SOS high GTP) activity expressed as IC50
Listed here: items and their measured pIC50.
Lab note: report pIC50 as minus log10 of the concentration in molar units, number only.

Below, 3 compounds whose answers are already recorded.
{"Compound": "COc1cc2nc(C)nc(N[C@H](C)c3cccc(C(N)=O)c3)c2cc1OC", "Measured Target": "human SOS1 (nucleotide exchange of K-Ras^G12C) (Homo sapiens, UniProt Q07889)", "pIC50": 5.85}
{"Compound": "CCCOc1ccc(Cl)cc1-c1cccc([C@@H](C)Nc2nc(C)nc3cc(OC)c(OC)cc23)c1", "Measured Target": "human SOS1 (nucleotide exchange of K-Ras^G12C) (Homo sapiens, UniProt Q07889)", "pIC50": 5.02}
{"Compound": "CCN(CC)Cc1ccccc1-c1ccc(C(C)Nc2nc(C)nc3cc(OC)c(OC)cc23)s1 (stereo not shown)", "Measured Target": "human SOS1 (nucleotide exchange of K-Ras^G12C) (Homo sapiens, UniProt Q07889)", "pIC50": 6.85}

Turning now to a further compound:
Request: Complete the entry with pIC50 for COc1cc2nc(C)nc(NC(C)c3ccc(-c4ccc(F)cc4CNC(=O)[C@H]4CCCN4)s3)c2cc1OC (stereo in doubt)
Result: 6.55

====

# Measured Target: human SOS1 (loading of human K-Ras^G12C-GDP with fluorescent GTP-analog) (Homo sapiens, UniProt Q07889)
# Test Protocol: Biochemical assay 3: K-Ras^G12C activation assay by hSOS1 (HTRF)
# Protocol Conditions: no GTP; read-out: Assay 3 (KRAS-Activation by SOS no GTP) activity expressed as IC50
Listed here: items and their measured IC50.
Note: unit µM is implicit; provide only the numeric part.

{"Molecule": "COc1cc2nc(C)nc(NC(C)c3ccc(-c4ccc(F)cc4CNC(=O)c4ncc[nH]4)s3)c2cc1OC (centres unmarked)", "Unit Annotation": "µM", "IC50": 8.2}

Turning now to a further molecule:
Request: Complete the entry with IC50 for "COc1cc2nc(C)nc(N[C@H](C)c3cccc(-c4cn[nH]c4)c3)c2cc1OCC1COC1"
Result: 0.677

====

Listed here: items and their measured inhibition at 20 µM.
# Measured Target: human SOS1 (loading of human K-Ras^G12C-GDP with fluorescent GTP-analog) (Homo sapiens)
# Test Protocol: Biochemical assay 3: K-Ras^G12C activation assay by hSOS1 (HTRF)
# Protocol Conditions: read-out: Assay 3 (KRAS-Activation by SOS no GTP) activity expressed as % inhibition at 20 μM; no GTP; at 20 μM
A complete answer gives the number followed by the unit.

Below, 3 compounds whose answers are already recorded.
{"Compound": "COc1cc2nc(C)nc(N[C@H](C)c3cccc(-c4ccccc4Oc4ccccc4)c3)c2cc1OC", "inhibition at 20 µM": "38%"}
{"Compound": "COc1cc2nc(C)nc(N[C@@H](C)c3ccc(-c4ccc(C(C)(C)C#N)cc4)s3)c2cc1OC (stereo in doubt)", "inhibition at 20 µM": "32%"}
{"Compound": "COc1cc2nc(C)nc(NC(C)c3ccc(Br)o3)c2cc1OC (stereo not drawn)", "inhibition at 20 µM": "47%"}

Request: Complete the entry with inhibition at 20 µM for COc1cc2nc(C)nc(NC(C)c3cccc4cn(C)nc34)c2cc1OC (stereo not drawn)
Result: 14%

Request: Complete the entry with inhibition at 20 µM for COc1cc2nc(C)nc(N[C@@H](C)c3ccc(-c4ccc(CNS(C)(=O)=O)cc4)s3)c2cc1OC (stereo in doubt)
Result: 33%

Request: Complete the entry with inhibition at 20 µM for "COc1cc2nc(C)nc(N[C@H](C)c3cccc(/C=C/Cc4ccccc4)c3)c2cc1OC"
Result: 31%

Request: Complete the entry with inhibition at 20 µM for COc1cc2nc(C)nc(N[C@@H](C)c3ccc(-c4cccc(/C=C/C#N)c4)s3)c2cc1OC (racemic)
Result: 13%

Request: Complete the entry with inhibition at 20 µM for COc1cc2nc(C)nc(N[C@@H](C)c3ccc(-c4cccc(N5CCOCC5)c4)s3)c2cc1OC (stereo in doubt)
Result: 25%

Request: Complete the entry with inhibition at 20 µM for COc1cc2nc(C)nc(N[C@@H](C)c3ccc(/C=C/Cc4ccccc4)s3)c2cc1OC (racemic)
Result: 11%
